Cited source for all entries: patent US20220235134A1

# system.under.test: T1, B7-H3, native protein on the cell surface of A498 and SK-MES-1 cells (UniProt Q5ZPR3 29-534, limits assumed)
# T1 construct: whole, on cells; The cell line is named under assay for each row
# T1 sequence (looked up): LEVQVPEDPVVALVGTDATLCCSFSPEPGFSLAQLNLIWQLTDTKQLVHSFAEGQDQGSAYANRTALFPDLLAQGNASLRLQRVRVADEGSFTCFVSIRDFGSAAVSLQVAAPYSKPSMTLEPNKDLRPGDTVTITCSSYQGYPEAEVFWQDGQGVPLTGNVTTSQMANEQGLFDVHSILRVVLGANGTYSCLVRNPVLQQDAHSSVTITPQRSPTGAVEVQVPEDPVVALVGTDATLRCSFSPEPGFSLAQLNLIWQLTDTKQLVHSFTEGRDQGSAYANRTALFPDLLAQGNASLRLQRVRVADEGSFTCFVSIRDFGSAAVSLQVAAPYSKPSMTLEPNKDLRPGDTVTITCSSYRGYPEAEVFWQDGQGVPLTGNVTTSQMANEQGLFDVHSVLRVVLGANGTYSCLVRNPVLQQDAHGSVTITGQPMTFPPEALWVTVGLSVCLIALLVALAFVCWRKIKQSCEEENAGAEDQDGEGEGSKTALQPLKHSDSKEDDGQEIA
# assay.procedure: flow cytometry (FACS) on SK-MES-1 cells
readout.kind: EC50 (nM)
Numbers only, in nM.

SCT-Da182 (antibody, V domains shown) VH: EVQLQQSGPELVKPGASMKISCKVSGFSFTGYTMNWVKQSHGKNLEWIGLINTYNGGTFYNQKFKAKATLTVDKSSSTAHMELLSLTSEDSAVYYCARSPGRYSMDYWGQGTSVTVSS VL: DIVLTQSPASLAVSLGQRATISCKASQSVDYNGYSYLNWYQQKPGQPPKLLIYPASNLESGIPARFSGSGSGTDFTLNIHPVEEEDAATYYCQQSKEDPYTFGGGTKLEIK : 4.09

For each entry beneath this line, provide reported EC50.
1. SCT-Da148 (antibody, V domains shown) VH: EVQLQQSGAELVKPGASVKLSCTASGVNIKDTYIHWVKQRPEQGLEWIGRIDPANGNRKYDPKFQGKATITADSSSNTAYLQLSSLTSEDTAVYYCARDGYYAPGYWGQGTTLTVSS VL: DIVMTQSQKFMSTSVGDRVSVTCKASQNVGTDVAWYQQKPGQSPKLLIYSASYRFSGVPDRFTGSGSGTDFSLAISNVQSEDLAEYFCQQYNSYPYTFGGGAKLEIK
2. SCT-Da333 (antibody, V domains shown) VH: QVQLQQSGPELVRPGVSVKISCKGSGYTFTDYAVHWVKQSHAKSLEWIGVINTYSGNTYYNLHFKGKATMTVDKSSSTAYMELARLTSEDSAIYYCARRRGSHRDAYFDYWGQGTTLTVSS VL: DIVMTQSHKFMSTSVGDRVSITCRASQDVSTAVAWYQQKPGQSPKLLIYSASYRYTGVPDRFTVSGSGTDFTFTISSVQAEDLAVYYCQQHYSTPWTFGGGTKLEIK

A.
[1.49, 1.94]

Input SCT-Da192 (antibody, V domains shown) VH: EVQLQQSGPELVKPGASVKISCKTSGYTFTEYTMHWVKQSHGKSLEWIGVINPNNGGTTYNQKFKGKATLTVDKSSSTAYMELRSLTSEDSAVYYCARPHSLLRLRREFDYWGQGTTLTVSS VL: QIVLTQSPALMSASPGEKVTMTCSASSSVSYMYWYQQKPRSSPKPWIYLTSNLASGVPARFSGSGSGTSYSLTISSMEAEDAATYYCQQWSSNPLTFGAGTKLELK . Output EC50: 2.32
